Sourced from ChEMBL document CHEMBL5584208

Assay: AUC (0 to infinity) in mouse at 10 mg/kg, po
Assay type: ADME, organism-based
Settings: in vivo
measurement.kind: log10 of AUC(0-inf) (log10 of the value in ng·h/mL)
Each number you see is log10 of AUC(0-inf), and the unit inside the log is ng·h/mL.

>>> experimental_value("CCN(c1cc(-c2ccc3c(c2)N(C)CC32CCOCC2)cc(C(=O)NCc2c(C)cc(C)[nH]c2=O)c1C)C1CCOCC1")
2.76
>>> experimental_value("CCN(c1cc(-c2ccc3c(c2)NC(=O)C32CCN(C)CC2)cc(C(=O)NCc2c(C)cc(C)[nH]c2=O)c1C)C1CCOCC1")
0.53
>>> experimental_value("CCN1C(=O)C2(CCOCC2)c2ccc(-c3cc(C(=O)NCc4c(C)cc(C)[nH]c4=O)c(C)c(N(CC)C4CCOCC4)c3)cc21")
3.13
>>> experimental_value("CCN(c1cc(-c2ccc3c(c2)CCC3N2CCOCC2)cc(C(=O)NCc2c(C)cc(C)[nH]c2=O)c1C)C1CCOCC1 (stereo unspecified)")
3.47
>>> experimental_value("CCN(c1cc(-c2ccc(CN3CCOCC3)cc2)cc(C(=O)NCc2c(C)cc(C)[nH]c2=O)c1C)C1CCOCC1")
3.64

Consider now this further compound.
Lookup: Find the recorded log10 of AUC(0-inf) belonging to CCN(c1cc(-c2ccc3c(c2)NC(=O)C32CCOCC2)cc(C(=O)NCc2c(C)cc(C)[nH]c2=O)c1C)C1CCOCC1 and report it.
Found: 2.10
